The reported measurements were obtained from ChEMBL document CHEMBL1137354.

Test: Ratio of drug concentration in brain to serum in DIO AKR/J mouse at 3 mg/kg, po
Recorded Endpoint: Kp
Just the number, please.

Please report the measured Kp for CN1CCN(Cc2ccc3cc(-n4cnc5cc(-c6ccc(Cl)cc6)sc5c4=O)ccc3n2)CC1 31

----------
Assay: Volume of distribution in rat at 3 mg/kg, iv and 10 mg/kg, po
Format: ADME, organism-based
Conditions: in vivo, read-out: Vss
Recorded Endpoint: Vd (L/kg)
Write the value in L/kg as a bare number.

// known answers, use as guide
Please report the measured Vd for O=c1c2sc(-c3ccc(Cl)cc3)cc2ncn1-c1ccc2nc(CN3CCC(c4ccc(F)cc4)CC3)ccc2c1 2.3

Please report the measured Vd for O=c1c2sc(-c3ccc(Cl)cc3)cc2ncn1-c1ccc2nc(CN3CCC(c4ccc(C(F)(F)F)cc4)CC3)ccc2c1 1.1

Please report the measured Vd for CN(C)CC1CNc2cc(-n3cnc4cc(-c5ccc(Cl)cc5)sc4c3=O)ccc2O1 (stereo unspecified) 27

Please report the measured Vd for O=c1c2sc(-c3ccc(Cl)cc3)cc2ncn1-c1ccc2c(c1)OC[C@H](CN1CCCC1)O2 22

Please report the measured Vd for CN1CCN(Cc2ccc3cc(-n4cnc5cc(-c6ccc(Cl)cc6)sc5c4=O)ccc3n2)CC1 19

Moving on to the next molecule.
Please report the measured Vd for O=c1c2sc(-c3ccc(Cl)cc3)cc2ncn1-c1ccc2nc(CN3CCC(c4ccccc4)CC3)ccc2c1 4.3

----------
Test: Ratio of drug concentration in brain to serum in DIO AKR/J mouse at 1 mg/kg, po
Recorded Endpoint: Kp
Just the number, please.

Please report the measured Kp for CN1CCN(Cc2ccc3cc(-n4cnc5cc(-c6ccc(Cl)cc6)sc5c4=O)ccc3n2)CC1 31

----------
Assay: Half life in rat at 3 mg/kg, iv
Assay type: ADME, organism-based
Parameters: dose 3 mg/kg, route intravenous
Conditions: in vivo
Quick rule: half-life of at least 8 h means 1.0, below that means 0.0.

Below are worked cases with known answers.
Textbook exercise: given the entry O=c1c2sc(-c3ccc(Cl)cc3)cc2ncn1-c1ccc2c(c1)OC[C@H](CN1CCCC1)O2 , state whether its half-life is greater than or equal to 8 h. 0.0

Textbook exercise: given the entry O=c1c2sc(-c3ccc(Cl)cc3)cc2ncn1-c1ccc2nc(CN3CCC(c4ccc(F)cc4)CC3)ccc2c1 , state whether its half-life is greater than or equal to 8 h. 1.0

Textbook exercise: given the entry O=c1c2sc(-c3ccc(Cl)cc3)cc2ncn1-c1ccc2nc(CN3CCC(c4ccc(C(F)(F)F)cc4)CC3)ccc2c1 , state whether its half-life is greater than or equal to 8 h. 1.0

Here's the next entry for you.
Textbook exercise: given the entry CN1CCN(Cc2ccc3cc(-n4cnc5cc(-c6ccc(Cl)cc6)sc5c4=O)ccc3n2)CC1 , state whether its half-life is greater than or equal to 8 h. 0.0

----------
Assay: Ratio of drug concentration in brain to serum in DIO AKR/J mouse at 10 mg/kg, po
Recorded Endpoint: Kp
Just the number, please.

Please report the measured Kp for CN1CCN(Cc2ccc3cc(-n4cnc5cc(-c6ccc(Cl)cc6)sc5c4=O)ccc3n2)CC1 31

----------
Assay: Total clearance in rat at 3 mg/kg, iv and 10 mg/kg, po
Type: ADME, organism-based
Conditions: in vivo
Recorded Endpoint: clearance (mL/min/kg)
Write the value in mL/min/kg as a bare number.

Please report the measured clearance for CN1CCN(Cc2ccc3cc(-n4cnc5cc(-c6ccc(Cl)cc6)sc5c4=O)ccc3n2)CC1 39

Please report the measured clearance for O=c1c2sc(-c3ccc(Cl)cc3)cc2ncn1-c1ccc2nc(CN3CCC(c4ccc(F)cc4)CC3)ccc2c1 2.9

Please report the measured clearance for O=c1c2sc(-c3ccc(Cl)cc3)cc2ncn1-c1ccc2c(c1)OC[C@H](CN1CCCC1)O2 66

Please report the measured clearance for O=c1c2sc(-c3ccc(Cl)cc3)cc2ncn1-c1ccc2nc(CN3CCC(c4ccc(C(F)(F)F)cc4)CC3)ccc2c1 3.7

Please report the measured clearance for CN(C)CC1CNc2cc(-n3cnc4cc(-c5ccc(Cl)cc5)sc4c3=O)ccc2O1 (stereo unspecified) 88

Moving on to the next molecule.
Please report the measured clearance for O=c1c2sc(-c3ccc(Cl)cc3)cc2ncn1-c1ccc2nc(CN3CCC(c4ccccc4)CC3)ccc2c1 11

----------
Molecular target: Melanin-concentrating hormone receptor 1 (Homo sapiens, UniProt Q99705)
Sequence (Q99705 whole entry, the tested form may be a part): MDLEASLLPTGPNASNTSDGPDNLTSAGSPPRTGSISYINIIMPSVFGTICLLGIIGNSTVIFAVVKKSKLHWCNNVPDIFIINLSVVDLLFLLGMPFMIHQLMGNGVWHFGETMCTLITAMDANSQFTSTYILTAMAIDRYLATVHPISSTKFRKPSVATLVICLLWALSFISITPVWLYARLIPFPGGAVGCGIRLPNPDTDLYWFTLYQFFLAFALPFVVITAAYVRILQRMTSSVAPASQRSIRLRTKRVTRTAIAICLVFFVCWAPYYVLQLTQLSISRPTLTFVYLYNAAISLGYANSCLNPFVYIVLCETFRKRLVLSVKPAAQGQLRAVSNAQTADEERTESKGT
Assay: Antagonist activity against human MCHR1 expressed in CHO cells by Gal4/Elk1-Luc reporter assay
pIC50: −log10 of the molar value.
Quick rule: pIC50 of at least 8 means Met, below that means Not met.

Textbook exercise: given the entry O=c1c2sc(-c3ccc(F)cc3)cc2ncn1-c1ccc2nc(CN3CCOCC3)ccc2c1 , state whether its pIC50 is greater than or equal to 8. Not met

Textbook exercise: given the entry O=c1c2sc(-c3ccc(Cl)cc3)cc2ncn1-c1ccc2nc(Cn3ccnc3)ccc2c1 , state whether its pIC50 is greater than or equal to 8. Met

Textbook exercise: given the entry CN(Cc1ccc2cc(-n3cnc4cc(-c5ccc(Cl)cc5)sc4c3=O)ccc2n1)c1ccccc1 , state whether its pIC50 is greater than or equal to 8. Not met

Textbook exercise: given the entry O=c1c2sc(-c3ccc(Cl)cc3)cc2ncn1-c1ccc2nc(CN3CCN(CCN4CCOCC4)CC3)ccc2c1 , state whether its pIC50 is greater than or equal to 8. Not met

Textbook exercise: given the entry O=c1c2sc(-c3ccc(Cl)cc3)cc2ncn1-c1ccc2c(c1)NCC(CN1CCCC1)O2 (stereo unspecified) , state whether its pIC50 is greater than or equal to 8. Met

Textbook exercise: given the entry O=c1c2sc(-c3ccc(Cl)cc3)cc2ncn1-c1ccc2c(c1)NCC(CN1CC[C@@H](O)C1)O2 (stereo partly specified) , state whether its pIC50 is greater than or equal to 8. Met

Textbook exercise: given the entry O=c1c2sc(-c3ccccc3Cl)cc2ncn1-c1ccc2nc(CN3CCOCC3)ccc2c1 , state whether its pIC50 is greater than or equal to 8. Not met

Textbook exercise: given the entry CN(C)CC1CN(S(=O)(=O)c2ccccc2)c2cc(-n3cnc4cc(-c5ccc(Cl)cc5)sc4c3=O)ccc2O1 (stereo unspecified) , state whether its pIC50 is greater than or equal to 8. Not met

Textbook exercise: given the entry CC(C)(C)c1ccc(-c2cc3ncn(-c4ccc5nc(CN6CCOCC6)ccc5c4)c(=O)c3s2)cc1 , state whether its pIC50 is greater than or equal to 8. Not met

Textbook exercise: given the entry O=c1c2sc(-c3ccc(Br)cc3)cc2ncn1-c1ccc2nc(CN3CCOCC3)ccc2c1 , state whether its pIC50 is greater than or equal to 8. Not met

New cases:
Textbook exercise: given the entry COc1ccc(-c2cc3ncn(-c4ccc5nc(CN6CCOCC6)ccc5c4)c(=O)c3s2)cc1 , state whether its pIC50 is greater than or equal to 8. Not met

Textbook exercise: given the entry O=c1c2sc(-c3ccc(Cl)cc3)cc2ncn1-c1ccc2c(c1)OC[C@H](CN1CCCC1)O2 , state whether its pIC50 is greater than or equal to 8. Not met

Textbook exercise: given the entry CN1CCN(Cc2ccc3cc(-n4cnc5cc(-c6ccc(Cl)cc6)sc5c4=O)ccc3n2)CC1 , state whether its pIC50 is greater than or equal to 8. Met

Textbook exercise: given the entry CN(C)C[C@@H]1COc2cc(-n3cnc4cc(-c5ccc(Cl)cc5)sc4c3=O)ccc2O1 , state whether its pIC50 is greater than or equal to 8. Met

Textbook exercise: given the entry CN(C)C[C@H]1COc2cc(-n3cnc4cc(-c5ccc(Cl)cc5)sc4c3=O)ccc2O1 , state whether its pIC50 is greater than or equal to 8. Not met

Textbook exercise: given the entry CN(C)CC1CN(S(C)(=O)=O)c2cc(-n3cnc4cc(-c5ccc(Cl)cc5)sc4c3=O)ccc2O1 (stereo unspecified) , state whether its pIC50 is greater than or equal to 8. Not met

Textbook exercise: given the entry O=c1c2sc(-c3ccc(Cl)cc3)cc2ncn1-c1ccc2nc(CN3CCC(c4ccccc4)CC3)ccc2c1 , state whether its pIC50 is greater than or equal to 8. Met

Textbook exercise: given the entry O=c1c2sc(-c3ccccc3)cc2ncn1-c1ccc2nc(CN3CCOCC3)ccc2c1 , state whether its pIC50 is greater than or equal to 8. Not met

Textbook exercise: given the entry CN1CCN(CC2CNc3cc(-n4cnc5cc(-c6ccc(Cl)cc6)sc5c4=O)ccc3O2)CC1 (stereo unspecified) , state whether its pIC50 is greater than or equal to 8. Met

Textbook exercise: given the entry O=c1c2sc(-c3ccc(Cl)cc3)cc2ncn1-c1ccc2nc(CN3CCN(CCCN4CCOCC4)CC3)ccc2c1 , state whether its pIC50 is greater than or equal to 8. Not met

Textbook exercise: given the entry O=c1c2sc(-c3ccc(C(F)(F)F)cc3)cc2ncn1-c1ccc2nc(CN3CCOCC3)ccc2c1 , state whether its pIC50 is greater than or equal to 8. Not met

Textbook exercise: given the entry O=c1c2sc(-c3ccc(Cl)cc3)cc2ncn1-c1ccc2nc(CN3CCC(c4ccc(F)cc4)CC3)ccc2c1 , state whether its pIC50 is greater than or equal to 8. Met

Textbook exercise: given the entry N#Cc1ccc(-c2cc3ncn(-c4ccc5nc(CN6CCOCC6)ccc5c4)c(=O)c3s2)cc1 , state whether its pIC50 is greater than or equal to 8. Not met

Textbook exercise: given the entry O=c1c2sc(-c3ccc(Cl)cc3)cc2ncn1-c1ccc2nc(CN3CCN(c4ccccc4)CC3)ccc2c1 , state whether its pIC50 is greater than or equal to 8. Met

Textbook exercise: given the entry CCC(C)c1ccc(-c2cc3ncn(-c4ccc5nc(CN6CCOCC6)ccc5c4)c(=O)c3s2)cc1 (stereo unspecified) , state whether its pIC50 is greater than or equal to 8. Not met
